B1: VTI1B (parent)
chain: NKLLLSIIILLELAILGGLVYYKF

variants of: B1; assay: protein stability index of a GFP-peptide fusion (GPS, HEK-293T) (PSI 1-6); higher = more stable; conditions: c terminus: a fixed tail appended;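 note: lentivirally expressed fusions sorted by FACS into six bins by GFP to DsRed ratio, PSI derived from sequencing read proportions per bin multiplied by bin number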
Rule: protein stability index under 3 gives not met, otherwise met.

> print(dat)
    mutation.key  category.label
 1           L3M         not met
 2           L3P             met
 3           L5C         not met
 4          L13S             met
 5          Y22V             met
 6          L10Y         not met
 7          L13V         not met
 8          G18H         not met
 9           L4Q             met
10          L10Q         not met
11          L11H             met
12           L3R             met
13          I15Q         not met
14           I9L         not met
15          L11K         not met
16           L3G         not met
